Where do the numbers come from? From patent US20240216357A1.

Assay: Caco-2 permeability test
Conditions: human, Caco-2
Where a name gives a salt, the structure may show the parent alone.
Measurement Name: efflux ratio at 120 min

Sample answers from the record:
Entry under test: CS(=O)(=O)N1CCN(C(=O)c2cc(CN[C@@H]3C[C@H]3c3ccc(F)cc3)nc(-c3ccc(-n4cccn4)cc3)n2)CC1 . Its efflux ratio at 120 min was 1

The compound identified as COc1ccc(-c2c(-c3ccc(C#N)c(F)c3)nc(N3CCC(N)CC3)n3ccnc23)cc1O registered its efflux ratio at 120 min at 14.3

[A] O=C(NC1CCOCC1)c1cc(CN[C@@H]2C[C@H]2c2ccc(F)cc2)nc(-c2ccc(N3CCOCC3)cc2)n1 [Example 246, hydrochloride]
[B] Cc1noc2cc(-c3c(-c4ccc(C#N)c(F)c4)nc(N4CCC(N)CC4)n4ccnc34)c(F)cc12
[C] Cc1ccc(-c2nc(CN[C@@H]3C[C@H]3c3ccc(F)cc3)cc(C(=O)NC3CCOCC3)n2)cc1O
// sort entries: efflux ratio at 120 min, high to low State the ranking by listing the labels in the requested order.
B, C, A
(B: 5.84, C: 2.76, A: 0.96)

[I] COc1ccc(-c2c(O)cc(N3CCC(N)CC3)nc2-c2ccc(C#N)c(F)c2)cc1F [Example 11, formate]
[II] COc1ccc(-c2c(OC)cc(N3CCC(N)CC3)nc2-c2ccc(C#N)c(F)c2)cc1F
Identify the entry with the larger efflux ratio at 120 min. Options: I and II Which one? Tell me its label.
I
(I: 7.42, II: 1.13)
